Assay: Biodistribution: organ distribution of F-18 signal in mice
Assay type: in vivo, male NMRI mice
Conditions: kidney, 2 min post i.v. injection
Procedure: Biodistribution and excretion studies were performed in male NMRI mice (body weight app. 30g; 3 animals per time point). The animals were kept under normal laboratory conditions at a temperature of 22±2° C. and a dark/light rhythm of 12 hours. Food and water were provided ad libitium. […] At 2, 5, 30, 60, 240 min post intravenous injection via the tail vein of ca. 150 kBq in 100 μl of the test compound, urine and feces were quantitatively collected. […]
MEASUREMENT NAME: Organ distribution of F-18 signal, kidney (% ID/g)
Give the value in % ID/g but do not write % ID/g after it.

A selection of reference data follows.
COMPOUND	ENDPOINT VALUE
O=C(NCC(=O)N1CCN(c2ccc(OCc3ccccc3)cc2)CC1)c1ccc([18F])nc1 [Example 10e]	8.58
O=C(NCC(=O)N1CCN(c2ccc(OCc3ccccc3)cc2)CC1)c1cccnc1[18F] [Example 12c]	7.70
O=C(NCC(=O)N1CCN(c2ccc(OCc3ccccc3)cc2)CC1)c1cccc(OCC[18F])c1	15.52
O=C(NCC(=O)N1CCN(c2ccc(OCc3ccccc3)cn2)CC1)c1ccnc([18F])c1 [Example 14f]	7.60

Any idea what Organ distribution of F-18 signal, kidney was measured for O=C(NCC(=O)N1CCN(c2ccc(OCc3ccccc3)cc2)CC1)c1ccnc([18F])c1 [Example 11c] ? 7.68
